# System: USP8 MIT domain
# PROCEDURE_TEXT: Proteomic peptide-phage display (ProP-PD) selection against USP8 MIT domain
# Type: binding, human
# RUN_CONDITIONS: ProP-PD, human disorderome library, GST-tagged MIT bait, four rounds of selection; percent of NGS counts associated with each peptide, Fig. 1B
QUANTITY: NGS counts (%)
Hi! Could you send only the number? It should be in %, unit omitted.

A selection of reference data follows.
>  <PRIMARY_SEQUENCE>
VLSKRKGGNVGKSKRD [ERVK-21, Endogenous retrovirus group K member 21 Env polyprotein peptide 676-691]

>  <RESULT_UNIT>
%

>  <NGS counts (%)>
0.16

$$$$
>  <PRIMARY_SEQUENCE>
QAIYRHPLFPLLALLF [PKNOX1_56 − 71, Homeobox protein PKNOX1 peptide]

>  <RESULT_UNIT>
%

>  <NGS counts (%)>
0.95

$$$$
>  <PRIMARY_SEQUENCE>
PEKPHDSLDSRIEMLL [SETD1B492 − 507, Histone-lysine N-methyltransferase SETD1B peptide]

>  <RESULT_UNIT>
%

>  <NGS counts (%)>
1.37

$$$$
>  <PRIMARY_SEQUENCE>
EVEHRDLEDRYNQLLK [Girdin1192 − 1207, CCDC88A-encoded protein Girdin peptide]

>  <RESULT_UNIT>
%

>  <NGS counts (%)>
1.10

$$$$
>  <PRIMARY_SEQUENCE>
SQKELESYMMRAQQLL [SYNE2_853 − 868, Nesprin-2 peptide]

>  <RESULT_UNIT>
%

>  <NGS counts (%)>
0.43

$$$$

// map TKTLEERISKLISDNE [HIVEP1_741 − 756, Zinc finger protein 40 peptide] to recorded NGS counts (%) (system: USP8 MIT domain)
0.21

Param item: MDDDYEAYHSLFLSLL [EFCAB12_1 − 16]
78.22

Same question for HRRVRTEGKESSSASR [CACNA1E, Voltage-dependent R-type calcium channel subunit alpha-1E peptide 923-938] please.
0.87

Next up: SEVSDIESRIAALRAA [MLPH481 − 496, melanophilin peptide]
0.52

Would you kindly repeat that for YVDLDAFLLEHGLPPS [DBP116 − 131] ?
16.16

====

enrichment_relative_to_wt at position 7 (wt G) reference
# SYSTEM_TESTED: USP8 Rhod domain (Homo sapiens, UniProt P40818)
# Construct: USP8 Rhod (174–317) (UniProt: P40818); GST (cleaved yes); made in house; host or cells: Escherichia coli BL21-Gold (DE3)
# Sequence (P40818 174-317): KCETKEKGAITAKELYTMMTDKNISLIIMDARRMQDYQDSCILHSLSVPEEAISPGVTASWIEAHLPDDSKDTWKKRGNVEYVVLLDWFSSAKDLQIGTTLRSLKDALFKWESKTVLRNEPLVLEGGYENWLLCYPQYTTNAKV
# PROCEDURE_TEXT: Peptide-phage display-based deep mutational scanning (DMS), USP8 Rhod domain
# Assay type: binding
# RUN_CONDITIONS: PSSM, library USP8_DMS, days 2,3; position 7
I'd appreciate a reply containing only the number, no unit.

// solved cases for enrichment_relative_to_wt at position 7 (wt G) follow
>  <SUBSTANCE>
KIAA1614_Q5VZ46_569_584 G7Q (MERVLGQLSSPLRLLP; UniProt Q5VZ46 569-584, looked up, variant G7Q)

>  <NUMERIC_READOUT>
1.89

$$$$
>  <SUBSTANCE>
KIAA1614_Q5VZ46_569_584 G7L (MERVLGLLSSPLRLLP; UniProt Q5VZ46 569-584, looked up, variant G575L)

>  <NUMERIC_READOUT>
-3

$$$$
>  <SUBSTANCE>
KIAA1614_Q5VZ46_569_584 G7T (MERVLGTLSSPLRLLP; peptide 569-584; UniProt Q5VZ46 569-584, looked up, variant G7T)

>  <NUMERIC_READOUT>
30

$$$$
>  <SUBSTANCE>
KIAA1614_Q5VZ46_569_584 G7E (MERVLGELSSPLRLLP; UniProt Q5VZ46 569-584, looked up, variant G7E)

>  <NUMERIC_READOUT>
1.36

$$$$
>  <SUBSTANCE>
KIAA1614_Q5VZ46_569_584 G7W (MERVLGWLSSPLRLLP; UniProt Q5VZ46 569-584, looked up, variant G7W)

>  <NUMERIC_READOUT>
-172

$$$$
>  <SUBSTANCE>
KIAA1614_Q5VZ46_569_584 G7R (MERVLGRLSSPLRLLP; UniProt Q5VZ46 569-584, looked up, variant G7R)

>  <NUMERIC_READOUT>
-19

$$$$
>  <SUBSTANCE>
KIAA1614_Q5VZ46_569_584 G7H (MERVLGHLSSPLRLLP; UniProt Q5VZ46 569-584, looked up, variant G7H)

>  <NUMERIC_READOUT>
-7.58

$$$$

Let us examine a further case.
# enrichment_relative_to_wt at position 7 (wt G) lookup, item KIAA1614_Q5VZ46_569_584 G7I (MERVLGILSSPLRLLP; peptide 569-584; UniProt Q5VZ46 569-584, looked up, variant G7I)
-2.84
